- TEST NAME: GFP drop in mixed WT/humanized-ribosome E. coli culture – GFP/RFP fluorescence, OD600, single point, bacterial rRNA inhibitor project, primary screen (AID 720706)
- PROTOCOL CONDITIONS: E. coli WT GFP vs humanized-ribosome RFP mutants, 24 h; stronger effect = lower value, DMSO median 0, no signal -100
Hit rate of the full screen: of about 350,000 compounds, about 5,500 (1.6%) were called active. For the sample, actives were picked, then their nearest neighbours and some compounds at random.
# key: entry, value: GFP signal change (wild-type ribosome)

Lookup: Give its GFP signal change (wild-type ribosome) value. Item: Cc1ccccc1-c1cc(C(=O)NCc2cccs2)n(CC2CC(c3cccnc3)=NO2)n1 (stereo not given)
Found: -17.6% (active)

Lookup: Would you mind doing `COc1ccc(C(=O)NC2CCN(C(=O)Nc3ccc(F)cc3)CC2)cc1` as well?
Found: 3.88% (inactive)

Lookup: Would you mind doing `CC(=O)O[C@]1(C(C)=O)CC[C@H]2[C@@H]3C=C(C)C4=CC(=O)CC[C@]4(C)[C@H]3CC[C@@]21C` as well?
Found: -55.8% (inactive)

Lookup: Would you mind doing `COc1ccccc1C(=O)Nc1ccc2c(c1)C(=O)N(C)C[C@@H](OC)[C@@H](C)CN(CC1CC1)[C@@H](C)CO2` as well?
Found: -1.52% (inactive)

Lookup: Would you mind doing `CC(C)NC(=O)Nc1ccc2c(c1)C(=O)N(C)[C@@H]1CC[C@H](CC(=O)NCC3CCCCC3)O[C@@H]1CO2` as well?
Found: -0.35% (inactive)

Lookup: Would you mind doing `FC(F)Oc1ccc(NC(=S)NCc2ccco2)cc1Cl` as well?
Found: -29.1% (active)

Lookup: Would you mind doing `C[C@@H]1CN([C@@H](C)CO)S(=O)(=O)c2ccc(C#C[C@@H](C)O)cc2O[C@@H]1CN(C)C(=O)Cc1ccccn1` as well?
Found: 3.39% (inactive)

Lookup: Would you mind doing `COc1ccc(-c2n[nH]c3c2CN(C(=O)c2ccc(F)cc2)CC3)cc1` as well?
Found: -24% (active)

Lookup: Would you mind doing `Cn1c(SCC(=O)c2cccs2)nnc1-c1ccco1` as well?
Found: 1.2% (inactive)

Lookup: Would you mind doing COc1cccc(-c2noc(C3CCCN(C(=O)c4ccc(F)cc4)C3)n2)c1 (stereo not given) as well?
Found: -16% (inactive)

Lookup: Would you mind doing `C[C@H](CO)N1C[C@H](C)[C@H](CN(C)Cc2ccncc2)Oc2ccc(NC(=O)Nc3ccc(F)cc3)cc2C1=O` as well?
Found: 0.717% (inactive)

====

- TEST NAME: GFP drop in mixed WT/humanized-ribosome E. coli culture – GFP/RFP fluorescence, OD600, single point, bacterial rRNA inhibitor project, primary screen (AID 720706)
- PROTOCOL CONDITIONS: E. coli WT GFP vs humanized-ribosome RFP mutants, 24 h, DMSO median 0, no signal -100
In all, about 350,000 compounds went through this assay and about 5,500 (1.6%) were called active.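 Rule for the calls: active = significant combined selectivity score with lowered wild-type GFP, culture density cut under 30%, mutant RFP and density less affected; inactive = any of these conditions unmet.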 Only a selection was taken, and actives are over-represented in it overall.
Pick one and only one: 1.0 for active, 0.0 for inactive

Below, 5 compounds whose answers are already recorded.
[[record]]
compound = "N#Cc1ccc(-c2ccc([C@H]3[C@H](CO)N4C(=O)CN(C(=O)Cc5ccccc5)C[C@@H]34)cc2)cc1"
answer_label = 0.0

[[record]]
compound = "CC(=O)Nc1ccc(NC(=O)C2CCCN(S(=O)(=O)c3ccc(Cl)cc3)C2)cc1 (stereo unspecified)"
answer_label = 0.0

[[record]]
compound = "Cc1ccc(N2C(=O)S/C(=C/c3cn(C)c4ccccc34)C2=O)cc1"
answer_label = 0.0

[[record]]
compound = "Cn1cc(C2OC(=O)c3ccccc32)c2ccccc21 (stereo unspecified)"
answer_label = 1.0

[[record]]
compound = "COc1ccc(-c2cn(CC[C@@H]3CC[C@@H](NS(=O)(=O)c4ccccc4C)[C@H](CO)O3)nn2)cc1"
answer_label = 0.0


Lookup: // return assay outcome for `O=C(C1CCC1)N1CC2(C1)[C@H](c1ccccc1)[C@H](CO)N2Cc1nccs1`
Found: 0.0

Lookup: Would you mind doing Cc1ccc(NC(=O)COC(=O)C2C3CC4OC(=O)C2C4C3)cc1Cl (stereo unspecified) as well?
Found: 0.0

Lookup: Would you mind doing `COc1ccc(NC(=O)N(C)C[C@@H]2Oc3ncc(-c4ccc(C#N)cc4)cc3C(=O)N([C@@H](C)CO)C[C@H]2C)cc1` as well?
Found: 0.0

====

- TEST NAME: GFP drop in mixed WT/humanized-ribosome E. coli culture – GFP/RFP fluorescence, OD600, single point, bacterial rRNA inhibitor project, primary screen (AID 720706)
- PROTOCOL CONDITIONS: E. coli WT GFP vs humanized-ribosome RFP mutants, 24 h; stronger effect = lower value, DMSO median 0, no signal -100
The campaign covered roughly 350,000 compounds. About 5,500 (1.6%) were called active. The sample as a whole holds a higher share of actives than the screen did.
PROPERTY NAME: GFP signal change (wild-type ribosome) (%)
Your answer is read as %, so omit the unit and give the number.

[[record]]
molecular_string = "O=S(=O)(Nc1ccc(O)c2ccccc12)c1ccc(OC(F)(F)F)cc1"
scale_unit = "%"
measured_result = -28.6


Lookup: Give its GFP signal change (wild-type ribosome) value. Item: `CCCNC(=O)C[C@@H]1C[C@H]2c3cc(NC(=O)Nc4ccccc4F)ccc3O[C@H]2[C@H](CO)O1`
Found: -3.87

Lookup: Would you mind doing `FC(F)(F)Oc1ccc(NC(=S)NCc2ccccc2)cc1` as well?
Found: -56.8

Lookup: Would you mind doing `COc1ccccc1NS(=O)(=O)c1ccc(C(=O)N2CCN(c3ccccc3O)CC2)cc1` as well?
Found: -1.32

Lookup: Would you mind doing `O=C([C@H]1[C@H](CO)[C@H]2Cn3c(ccc(-c4ccccc4)c3=O)[C@@H]1N2Cc1cccnc1)N1CCOCC1` as well?
Found: 5.29

====

- TEST NAME: GFP drop in mixed WT/humanized-ribosome E. coli culture – GFP/RFP fluorescence, OD600, single point, bacterial rRNA inhibitor project, primary screen (AID 720706)
- PROTOCOL CONDITIONS: E. coli WT GFP vs humanized-ribosome RFP mutants, 24 h; measured here: RFP humanized mutant strains, DMSO median 0, no signal -100, concentration not given here
Out of some 350,000 compounds screened, about 5,500 (1.6%) were called active. For the sample, actives were picked, then their nearest neighbours and some compounds at random.
PROPERTY NAME: RFP signal change (%)
Your answer is read as %, so omit the unit and give the number.

Solved entries:
[[record]]
molecular_string = "CCOc1ccccc1NC(=S)C(=C([O-])c1ccc2c(c1)OCCO2)[n+]1ccc(CC)cc1"
property_name = "RFP signal change"
measured_result = 11.5

[[record]]
molecular_string = "CCOc1ccccc1N1CCN(C(=O)c2ccc3[nH]c(C)c(C)c3c2)CC1"
property_name = "RFP signal change"
measured_result = 7.07

[[record]]
molecular_string = "CN1[C@@H]2c3ccc(-c4ccc(F)cc4)c(=O)n3C[C@H]1[C@H](CO)[C@H]2C(=O)NC1CCC1"
property_name = "RFP signal change"
measured_result = -1.53

[[record]]
molecular_string = "COCC(=O)N1CC2(C1)CN(C(=O)COC)[C@@H](CO)c1c2c2ccc(OC)cc2n1C"
property_name = "RFP signal change"
measured_result = 0.659

[[record]]
molecular_string = "CCOc1cc(NS(=O)(=O)c2ccc(OC)cc2)c(OCC)cc1NC(C)=O"
property_name = "RFP signal change"
measured_result = 1.03

[[record]]
molecular_string = "COc1cc(/C=C/C(=O)OCC(=O)c2ccccc2)cc(OC)c1OC"
property_name = "RFP signal change"
measured_result = -5.92

[[record]]
molecular_string = "O=C(Nc1ccccc1)N1CCCCN2[C@H](CO)[C@@H](c3ccc(-c4ccccc4F)cc3)[C@H]2C1"
property_name = "RFP signal change"
measured_result = -17.2

[[record]]
molecular_string = "CCN(CC)C(=O)c1nc[nH]c1C(=O)N(C)Cc1ccccc1"
property_name = "RFP signal change"
measured_result = 2.93

[[record]]
molecular_string = "Cc1ccc(NC(=O)c2sc3nc(N)c(C#N)cc3c2N)cc1"
property_name = "RFP signal change"
measured_result = 1.97

[[record]]
molecular_string = "Cc1ccc2c(N)c(C(=O)c3ccccc3)sc2n1"
property_name = "RFP signal change"
measured_result = -10.4


Lookup: Give its RFP signal change value. Item: `CCN(CC)C(=O)c1sc2nc(-c3ccccc3)ccc2c1N`
Found: 4.88

Lookup: Would you mind doing `C/C=C/c1ccc2c(c1)[C@H]1[C@H](CCN1S(=O)(=O)c1cn(C)cn1)[C@H](CO)N2` as well?
Found: 4.63

Lookup: Would you mind doing `COC(=O)c1cc2c(N)c(C(=O)c3ccc(Cl)cc3)sc2nc1C(OC)OC` as well?
Found: 2.24

Lookup: Would you mind doing `CCOc1ccc(NS(=O)(=O)c2ccc(C)c(C(N)=O)c2)cc1` as well?
Found: 0.34

Lookup: Would you mind doing `CCNC(=O)Nc1ccc2c(c1)C(=O)N(C)[C@H]1CC[C@H](CC(=O)NCC3CCCCC3)O[C@@H]1CO2` as well?
Found: 0.251
